The reported numbers originate from the supplement of paper PMC10567573.

B1: HESX1 (parent)
chain: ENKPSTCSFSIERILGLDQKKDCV

Variants of: B1
Test: protein stability index of a GFP-peptide fusion (GPS, HEK-293T) (PSI 1-6); higher = more stable;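 note: lentivirally expressed fusions sorted by FACS into six bins by GFP to DsRed ratio, PSI derived from sequencing read proportions per bin multiplied by bin number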
Settings: c terminus: a fixed tail appended
value-type: protein stability index
Enter the number alone.

protein stability index reported for this variant K20N : 2.71

Measured protein stability index, C23Y : 2.46

Record summary for Q19V : reported protein stability index = 2.71

The variant C7H showed protein stability index equal to 3.91

# protein stability index of L17W = 2.82

For record E1D the listed protein stability index is 3.29

get_value(item= I14E , readout=protein stability index) returns 4.88

// sample G16H , its protein stability index was 2.83

D18T yielded protein stability index of 2.77

Recorded result, I11N , protein stability index: 4.63

Per the records, this variant ( S10D ) has protein stability index equal to 4

Note to self: protein stability index recorded for K3S was 3.84

Input K3L . Output protein stability index: 2.35

The variant listed as L17S has a reported protein stability index of 3.86

The recorded protein stability index for entry S8M equals 3.73

protein stability index in this record for E12Q : 2.57

Lab book: protein stability index of S5T noted as 3.42

protein stability index measured on S8E = 4.18

What the record says about F9G : protein stability index is 4.43

Input K20M . Output protein stability index: 2.67

protein stability index recorded for this variant, S8R , is 2.79

The variant listed as T6F shows protein stability index equal to 2.85

Sure, the documented protein stability index for V24R is 3.38

Lab note: measured protein stability index of C7P was 4.01

Consider R13Y . Its measured protein stability index is 2.08

Noted for P4Q : its protein stability index reads 3.18

Form: variant = E1V ; protein stability index = 2.32

Consider C23R . Its measured protein stability index is 3.92

Documented protein stability index of C7E : 4.23

The recorded protein stability index for entry P4L equals 2.86

Summary for this variant, S8C : protein stability index is 4.28

According to the records, this variant P4V displays protein stability index of 3.35

get_value(item= S5D , readout=protein stability index) returns 3.16

Lab note: N2L gave protein stability index of 2.79

What the record says about F9T : protein stability index is 4.45

Reported protein stability index for C23D was 4.38

The reported value for P4F in terms of protein stability index is 2.62

protein stability index for V24S is 2.88

Sure, the documented protein stability index for D22A is 2.51

The variant D22Q showed protein stability index equal to 2.73

The recorded protein stability index for entry L15H equals 3.13

Lab note: L17H gave protein stability index of 3.53

// S8P : protein stability index value = 4.2

Entry S10E — recorded protein stability index = 3.01

Record summary for S10C : reported protein stability index = 2.38

The variant listed as I14N shows protein stability index equal to 3.83
